# Assay System: BTK (Homo sapiens (Human))
# Sequence (Q06187 393-659): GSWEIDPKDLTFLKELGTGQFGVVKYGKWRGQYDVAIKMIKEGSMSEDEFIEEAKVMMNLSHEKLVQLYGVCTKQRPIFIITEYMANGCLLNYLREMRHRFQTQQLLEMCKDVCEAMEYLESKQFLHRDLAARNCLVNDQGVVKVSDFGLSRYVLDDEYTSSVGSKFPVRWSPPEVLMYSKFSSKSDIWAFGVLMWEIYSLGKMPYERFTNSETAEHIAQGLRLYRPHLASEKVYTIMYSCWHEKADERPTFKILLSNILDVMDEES
# Experiment Description: In vitro BTK kinase activity measured by trFRET
# Run Conditions: recombinant human catalytic domain (aa 393-659), 0.01 mM ATP; read-out: Btk enzyme IC50
Readout: IC50

Check out these entries, answers already filled in.
Compound | Readout | Test Result
C=CC(=O)N1CCC[C@@H](c2cc(Nc3cc4n(n3)CCN(C)C4)c3ncnn3c2)C1 | IC50 | < 100 nM
C=CC(=O)N1CCCC(c2cn3ncnc3c(Nc3ccc4c(c3)NC(=O)CCC4)n2)C1 (stereo not shown) | IC50 | < 100 nM
C=CC(=O)N1CC[C@@H](c2cn3ccnc3c(Nc3ccc4c(c3)NC(=O)CCC4)n2)C1 | IC50 | < 100 nM

Noted for C=CC(=O)N1CC[C@H](c2cn3ccnc3c(Nc3ccc4c(c3)NC(=O)CCC4)n2)C1 : its IC50 reads 100 to 1000 nM

So for Cn1ccc(Nc2cc([C@H]3CCC[C@H](NC#N)C3)cn3ncnc23)n1 , the logged IC50 turned out to be 100 to 1000 nM

Summary for this compound, C=CC(=O)N1CCC(c2cc(Nc3ccc4c(c3)NC(=O)CCC4)c3ncnn3c2)C1 (stereo not shown) : IC50 is 100 to 1000 nM

So, C=CC(=O)N1CC[C@@H](c2cn3ncnc3c(Nc3cnn(C)c3)n2)C1 (single isomer, unassigned) ? Its IC50 was 1000 to 50000 nM

Reported IC50 for N#CN1CCCC(c2cc(Nc3cc4n(n3)CCOC4)c3ncnn3c2)C1 (stereo not shown) was 100 to 1000 nM

For C=CC(=O)N1CCCC(c2cc(Nc3cc4n(n3)CCOC4)c3ncnn3c2)C1 (stereo not shown) the compound record lists IC50 as 100 to 1000 nM

So for C=CC(=O)N1CC[C@H](c2cc(Nc3cc4n(n3)CCOC4)c3ncnn3c2)C1 , the logged IC50 turned out to be < 100 nM

For reference, reported IC50 for C=CC(=O)N1CC[C@H](c2cn3ncnc3c(Nc3ccc(OC)c(OC)c3)n2)C1 stands at 100 to 1000 nM

The recorded IC50 for entry C=CC(=O)N1CCC(c2cn3ncnc3c(Nc3ccc(OC)c(OC)c3)n2)C1 (stereo not shown) equals 100 to 1000 nM

* * *

# Assay System: BTK (Homo sapiens (Human))
# Experiment Description: In vitro BTK kinase activity measured by trFRET
# Run Conditions: recombinant human catalytic domain (aa 393-659), 0.01 mM ATP; read-out: Btk enzyme IC50
pIC50: −log10 of the molar value.
The entries below come with measured pIC50 values attached.

Observed pIC50 on BTK (Homo sapiens (Human)), entry C=CC(=O)N1CC[C@@H](c2cc(Nc3ccn(C)n3)c3ncnn3c2)C1 [Example F1.37] , equals 4.30 to 6.00

Measured pIC50 for this entry C=CC(=O)N[C@@H]1CC[C@H](c2cc(Nc3ccc(N4CCOCC4)cn3)c3ncnn3c2)C1 (single isomer, unassigned) [Example 9 (1R,3S)] on BTK (Homo sapiens (Human)): > 7.00

Assay BTK (Homo sapiens (Human)), sample C=CC(=O)N1CCCC(c2cc(Nc3nc(C(C)C)no3)c3ncnn3c2)C1 (stereo not shown) [Example F1.31] , pIC50 read: 4.30 to 6.00

Record C=CC(=O)Nc1cccc(-c2cn3ncnc3c(NC34CC(C3)C4)n2)c1 [F.1.2] ; system BTK (Homo sapiens (Human)); pIC50 = 6.00 to 7.00

Measured pIC50 for this entry C=CS(=O)(=O)N1CC[C@H](c2cn3ncnc3c(Nc3ccc(OC)c(OC)c3)n2)C1 (single isomer, unassigned) [H.1] on BTK (Homo sapiens (Human)): > 7.00

// pIC50 (BTK (Homo sapiens (Human))) for C=CC(=O)N1CCC(c2cn3ncnc3c(NC)n2)C1 (stereo not shown) [F.1.16] = 4.30 to 6.00
